src = paper PMC10397247

# assaySystem: T1, 4H317-AA
# T1 chain: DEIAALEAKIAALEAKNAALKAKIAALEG
# assaySummary: two-hybrid library CCmax;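 also: natural log of median RNA to DNA barcode read ratio; higher means stronger binding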
# measurementConditions: mean of both orientations
readoutName: interaction score
Could you respond with only the numeric value?

Use the examples below as a reference point.
[
  {
    "binder": "DKIAALEAKNAALEAKIAALEAEIAALKG [4H2466-AA]",
    "result": -1.82
  },
  {
    "binder": "DEIAALEAENAALKAKIAALKAEIAALKG [4H234-AA]",
    "result": -1.11
  },
  {
    "binder": "DENAALEAENAALEAEIAALEAEIAALEG [4H1153-AA]",
    "result": -1.45
  },
  {
    "binder": "DENAALEAEIAALKAKIAALKAKNAALEG [4H1135-AA]",
    "result": -0.38
  },
  {
    "binder": "DENAALKAEIAALEAEIAALKAKNAALKG [4H1552-AA]",
    "result": 0.795
  }
]

Q: Tell us which interaction score value is on record for DKIAALKAENAALKAEIAALEAEIAALKG [4H2754-AA]
A: -1.23

Q: # return recorded interaction score for input DKIAALKAKIAALKAEIAALEAENAALEG [4H2883-AA]
A: -0.269

Q: Look up interaction score of DKIAALKAENAALEAKIAALKAEIAALEG [4H2729-AA] and report it.
A: 1.37

Q: Indicate the recorded interaction score value for this binder: DKIAALKAKIAALKAKNAALKAKNAALKG [4H2944-AA]
A: -1.04

Q: Output measured interaction score for this item: DKIAALKAEIAALEAKNAALKAEIAALEG [4H2617-AA]
A: 1.65

Q: Read off the recorded interaction score for DKIAALEAEIAALEAENAALKAKIAALKG [4H2078-AA]
A: 1.93

Q: Look up and report measured interaction score for this entry: DENAALKAKIAALKAEIAALKAENAALEG [4H1867-AA]
A: -1.01

Q: Give me measured interaction score, please, for this binder: DKIAALEAKNAALKAEIAALKAEIAALEG [4H2505-AA]
A: -1.65

Q: Identify the reported interaction score for the following entry. DEIAALEAEIAALKAKNAALKAEIAALKG [4H122-AA]
A: -1.2

Q: Let me know recorded interaction score for DKIAALEAENAALKAKIAALEAKIAALEG [4H2277-AA] , thanks.
A: -1.02
